Every entry's value here was drawn from ChEMBL document CHEMBL1201862.

# Test system: OVCAR-5
# assay_procedure: NCI tumour cell line growth inhibition, 48 h
Active and inactive are the calls of the source. No stated cut-off is given here; in the data, active = GI50 up to about 1.1 µM and inactive = higher.
observed_property: GI50

INSERT INTO measurements (compound, observed) VALUES
  ('C[C@@H]1C[C@H]2[C@@H]3CCC4=CC(=O)C=C[C@]4(C)[C@@]3(Cl)[C@@H](Cl)C[C@]2(C)[C@@]1(O)C(=O)COP(=O)(O)O', '> 100 µM (inactive)'),
  ('C=C1C(=O)O[C@@H]2C[C@@H](C)[C@@H]3[C@@H](OC4OC(COC(C)=O)C(O)C(O)C4O)CC(=O)[C@@]3(C)C[C@H]12 (some centres undefined)', '3.54 µM (inactive)'),
  ('CCOC(=O)c1cc2c(=Cc3ccc(N(C)C)cc3)c3ccccc3n2[n+]1C', '5.98 µM (inactive)'),
  ('S=C(CSc1ccccc1)Nc1cccc2ccccc12', '72.1 µM (inactive)');
